For each record, write down the corresponding Percent parent compound remaining at 60 minutes in liver microsomes, Human.
Details: 1 h, pH 7.4
Give bare numbers, in %.

{"compound": "Cc1c(-c2ccc(OC(C)C)cc2)ccc2ncc(-c3ccc(OC(C)C)cc3)n12 [Example C51]", "number": 100}
{"compound": "CC(C)Oc1ccc(-n2cnc3ccc(-c4ccc5[nH]ccc5c4)cc32)cc1 [Example A24]", "number": 63}
{"compound": "CC(C)Oc1ccc(-c2cnc3ccc(-c4ccc(C(C)(C)O)cc4)cn23)cc1 [Example C1]", "number": 76}

Proceed to the following item.
Ask | What value of measured Percent parent compound remaining at 60 minutes in liver microsomes, Human is listed for COc1cc2ncn(-c3ccc(OC(C)C)cc3)c2cc1-c1ccc(OC(C)C)cc1 [Example A31] ?
Reply | 93

* * *

Tested on: LASV-p
Assay: organism not typed
Type: cell-based, Lassa (LASV)
Conditions: Vero, 24 h, read-out: LASV-p EC50 (nM)
For each record, write down the corresponding EC50.

Answered examples (3):
{"compound": "CCOC(=O)c1nc2ccc(-c3ccc(OC(C)C)cc3)cn2c1-c1ccc(OC(C)C)cc1", "EC50": "> 25 nM"}
{"compound": "CC(C)Oc1ccc(-c2ccc3cnn(-c4ccc(OC(C)C)cc4)c3c2)cc1 [Example D1]", "EC50": "> 25 nM"}
{"compound": "CC(C)Oc1ccc(-c2cnc3ccc(-c4ccc(OCCN5CCOCC5)cc4)cn23)cc1", "EC50": "> 25 nM"}

// input: 3 compounds below; output: EC50 for each
1. CC(C)Oc1ccc(-c2cnc3ccc(-c4ccc(N)nc4)cn23)cc1
2. CC(C)Oc1ccc(-c2ccc3occ(-c4ccc(OC(C)C)cc4)c3c2)cc1
3. CC(C)Oc1ccc(-c2ccc3nc(C(=O)O)c(-c4ccc(OC(C)C)cc4)n3c2)cc1

Reply |
1. > 25 nM
2. > 25 nM
3. > 25 nM

* * *

Tested on: JUNV-p
Test: organism not typed
Format: cell-based, Junin (JUNV)
Conditions: Vero, 24 h, read-out: JUNV-p EC50 (nM)
YES if EC50 is below 1 nM. NO if not; exact matches included in NO.

{"chemicalStructure": "CC(C)Oc1ccc(-c2cnc3ccc(-c4ccc(OC(C)C)cc4F)cn23)cc1", "systemName": "JUNV-p", "assignedCategory": "NO"}
{"chemicalStructure": "COc1ccccc1-n1cnc2ccc(-c3ccc(C(C)(C)O)cc3)cc21", "systemName": "JUNV-p", "assignedCategory": "NO"}
{"chemicalStructure": "CC(C)Oc1ccc(-c2ccc3occ(-c4ccc(OC(C)C)cc4)c3c2)cc1", "systemName": "JUNV-p", "assignedCategory": "NO"}

Ask | hey, is EC50 for CC(C)Oc1ccc(-c2nnc3ccc(-c4ccc5[nH]ccc5c4)cn23)cc1 lower than 1 nM or not?
Reply | NO

Ask | hey, is EC50 for CC(C)Oc1ccc(-c2ccc3ccn(-c4ccc(OC(C)C)cc4)c3c2)cc1 lower than 1 nM or not?
Reply | NO

Ask | hey, is EC50 for COc1ccc(-n2cnc3ccc(-c4ccc(O)cc4)cc32)cc1 lower than 1 nM or not?
Reply | NO

Ask | hey, is EC50 for CC(C)Oc1ccc(-c2cnc3ccc(-c4ccc(OC(C)C)c(F)c4)cn23)cc1 lower than 1 nM or not?
Reply | YES

Ask | hey, is EC50 for CC(C)Oc1ccc(-n2cnc3cnc(-c4ccc5[nH]ccc5c4)nc32)cc1 lower than 1 nM or not?
Reply | NO

Ask | hey, is EC50 for CC(C)Oc1ccc(-c2cnc3ccc(-c4ccc(C(N)=O)cc4)cn23)cc1 lower than 1 nM or not?
Reply | NO

Ask | hey, is EC50 for COc1ccc(-n2cnc3ccc(-c4ccccc4OC)cc32)cc1 lower than 1 nM or not?
Reply | NO

Ask | hey, is EC50 for COc1ccc(-n2cnc3ccc(-c4cccc(C(C)C)c4)cc32)cc1 lower than 1 nM or not?
Reply | NO

Ask | hey, is EC50 for CC(C)Oc1ccc(-c2cnc3ccc(-c4ccc(N)nc4)cn23)cc1 lower than 1 nM or not?
Reply | NO

Ask | hey, is EC50 for CC(C)Oc1ccc(-c2cnc3ccc(-c4ccc(C(F)F)cc4)cn23)cc1 lower than 1 nM or not?
Reply | NO

Ask | hey, is EC50 for CC(C)Oc1ccc(-c2cnc3ccc(-c4ccc(C5(O)CCC5)cc4)cn23)cc1 lower than 1 nM or not?
Reply | YES

Ask | hey, is EC50 for CC(=O)c1ccc(-c2ccc3cnn(-c4ccc(OC(C)C)cc4)c3c2)cc1 lower than 1 nM or not?
Reply | NO

Ask | hey, is EC50 for CC(C)Oc1ccc(-c2ccc3ncn(-c4ccc5[nH]ccc5c4)c3c2)cc1 lower than 1 nM or not?
Reply | YES

Ask | hey, is EC50 for COc1cccc(-n2cnc3ccc(-c4ccc(C(C)(C)O)cc4)cc32)c1 lower than 1 nM or not?
Reply | NO

Ask | hey, is EC50 for CC(=O)c1ccc(-c2cnc3cnc(-c4ccc(OC(C)C)cc4)cn23)cc1 lower than 1 nM or not?
Reply | NO

Ask | hey, is EC50 for COc1ccc(-n2cnc3ccc(-c4ccc(CO)cc4)cc32)cc1 lower than 1 nM or not?
Reply | NO

Ask | hey, is EC50 for CC(C)Oc1ccc(-c2ccc3ncc(-c4ccc(OC(F)F)cc4)n3c2)cc1 lower than 1 nM or not?
Reply | YES

Ask | hey, is EC50 for COc1ccc(-n2cnc3ccc(-c4ccc(C(C)C)cc4)cc32)cc1 lower than 1 nM or not?
Reply | NO

Ask | hey, is EC50 for CC(C)Oc1ccc(-n2nnc3ccc(-c4ccc5[nH]ccc5c4)cc32)cc1 lower than 1 nM or not?
Reply | NO

Ask | hey, is EC50 for CC(=O)c1ccc(-c2cc3c(cn2)ncn3-c2ccc(OC(C)C)cc2)cc1 lower than 1 nM or not?
Reply | NO

Ask | hey, is EC50 for COc1cc2ncn(-c3ccc(OC(C)C)cc3)c2cc1-c1ccc(OC(C)C)cc1 lower than 1 nM or not?
Reply | YES

Ask | hey, is EC50 for COc1ccc(-n2cnc3ccc(-c4ccc(N(C)C)cc4)cc32)cc1 lower than 1 nM or not?
Reply | NO

* * *

System: LASV-p
Experiment: organism not typed
Format: cell-based, Lassa (LASV)
Details: Vero, 24 h, read-out: LASV-p EC50 (nM)
quantityKind: EC50

Answered examples (8):
{"chemicalStructure": "COc1ccc(-n2cnc3ccc(-c4cccc(OC)c4)cc32)cc1", "systemName": "LASV-p", "quantityKind": "EC50", "result": "> 25 nM"}
{"chemicalStructure": "CC(C)Oc1ccc(-c2ccc3noc(-c4ccc(OC(C)C)cc4)c3c2)cc1", "systemName": "LASV-p", "quantityKind": "EC50", "result": "> 25 nM"}
{"chemicalStructure": "COc1ccc(-n2cnc3ccc(-c4ccc(S(C)(=O)=O)cc4)cc32)cc1", "systemName": "LASV-p", "quantityKind": "EC50", "result": "> 25 nM"}
{"chemicalStructure": "c1cc(-c2ccc3ncc(-c4ccc(OC5CC5)cc4)n3c2)ccc1OC1CC1", "systemName": "LASV-p", "quantityKind": "EC50", "result": "7.23 nM"}
{"chemicalStructure": "CC(C)Oc1ccc(-c2ccc3cnc(-c4ccc(OC(C)C)cc4)n3c2)cc1", "systemName": "LASV-p", "quantityKind": "EC50", "result": "> 25 nM"}
{"chemicalStructure": "CC(=O)c1ccc(-c2ccc3ncn(-c4ccc5[nH]ccc5c4)c3c2)cc1", "systemName": "LASV-p", "quantityKind": "EC50", "result": "11 nM"}
{"chemicalStructure": "CC(C)Oc1ccc(-n2cnc3cnc(-c4ccc5[nH]ccc5c4)cc32)cc1", "systemName": "LASV-p", "quantityKind": "EC50", "result": "8.18 nM"}
{"chemicalStructure": "COc1ccc(-n2cnc3c(-c4cccc(C(C)C)c4)cccc32)cc1", "systemName": "LASV-p", "quantityKind": "EC50", "result": "> 100 nM"}

Proceed to the following item.
Ask | Provide the documented EC50 with LASV-p as the system for CC(C)Oc1ccc(-c2ccc3ncc(-c4ccc(OCCN5CCOCC5)cc4)n3c2)cc1
Reply | > 25 nM

* * *

System: LASV-p
Assay: organism not typed
Assay type: cell-based, Lassa (LASV)
Settings: Vero, 24 h, read-out: LASV-p EC50 (nM)
quantityKind: EC50 (nM)
Give bare numbers, in nM.

{"compound": "CC(C)Oc1ccc(-c2nnc3ccc(-c4ccc5[nH]ccc5c4)cn23)cc1 [Example D7]", "unitsOfMeasure": "nM", "EC50": 4.1}
{"compound": "CC(=O)c1ccc(-c2ccc3ncn(-c4ccc(OC(C)C)cc4)c3c2)cc1 [Example A26]", "unitsOfMeasure": "nM", "EC50": 0.59}
{"compound": "CC(C)Oc1ccc(-c2cnc3ccc(-c4ccc5c(ccn5C)c4)cn23)cc1 [Example C22]", "unitsOfMeasure": "nM", "EC50": 2.33}

Ask | Provide the documented EC50 with LASV-p as the system for COc1ccc(-n2cnc3ccc(-c4ccc(C(C)(C)O)cc4)cc32)cc1 [Example A8]
Reply | 6.4

These measurements were taken from patent US20220281825A1.
